Compiled notes: published IC50 values involving RON (Homo sapiens, UniProt Q04912).

{"sample_smiles": "Cc1ccc(-n2ncc(C(=O)Nc3ccc(Oc4ccnc5[nH]c(=O)n(C(C)C)c45)c(F)c3)c2C(F)(F)F)cc1", "study_system": "RON (Homo sapiens, UniProt Q04912)", "IC50": "50 to 500 nM"}
{"sample_smiles": "Cc1c(C(=O)Nc2ccc(Oc3ccnc4[nH]c(=O)n(C(C)C)c34)c(F)c2)cnn1-c1ccccc1", "study_system": "RON (Homo sapiens, UniProt Q04912)", "IC50": "< 50 nM"}
{"sample_smiles": "CC(C)c1c(Oc2c(F)cc(NC(=O)c3cnn(-c4ncccn4)c3C(F)(F)F)cc2F)ccnc1N", "study_system": "RON (Homo sapiens, UniProt Q04912)", "IC50": "< 50 nM"}
{"sample_smiles": "CCc1c(C(=O)Nc2ccc(Oc3ccnc(N)c3I)c(F)c2)cnn1-c1ncccc1F", "study_system": "RON (Homo sapiens, UniProt Q04912)", "IC50": "< 50 nM"}
{"sample_smiles": "Cc1c(C(=O)Nc2ccc(Oc3ccnc(N)c3Cl)c(F)c2)nnn1-c1ccccc1F", "study_system": "RON (Homo sapiens, UniProt Q04912)", "IC50": "50 to 500 nM"}
{"sample_smiles": "Cc1ccnc(-n2ncc(C(=O)Nc3ccc(Oc4ncnc(N)c4Cl)c(F)c3)c2C(F)(F)F)n1", "study_system": "RON (Homo sapiens, UniProt Q04912)", "IC50": "50 to 500 nM"}
{"sample_smiles": "COc1ccccc1-n1ncc(C(=O)Nc2ccc(Oc3ccnc(N)c3Cl)c(F)c2)c1C(F)(F)F", "study_system": "RON (Homo sapiens, UniProt Q04912)", "IC50": "50 to 500 nM"}

---

Literature roundup of RON (Homo sapiens, UniProt Q04912) data, read-out IC50.

{"sample_smiles": "CC(C)n1c(=O)[nH]c2nccc(Oc3ccc(NC(=O)c4ccccc4C(F)(F)F)cc3F)c21", "IC50": "0.5 to 5 µM"}
{"sample_smiles": "Nc1ncnc(Oc2ccc(NC(=O)c3cnn(-c4cncnc4)c3C(F)(F)F)cc2F)c1Cl", "IC50": "0.05 to 0.5 µM"}
{"sample_smiles": "C#Cc1c(Oc2c(F)cc(NC(=O)c3cnn(-c4ncccc4F)c3C(F)(F)F)cc2F)ccnc1N", "IC50": "< 0.05 µM"}
{"sample_smiles": "O=C(Nc1ccc(Oc2ccnc3[nH]c(=O)n(C4CCOCC4)c23)c(F)c1)c1cnn(-c2ncccc2F)c1C(F)(F)F", "IC50": "< 0.05 µM"}
{"sample_smiles": "Nc1nccc(Oc2c(F)cc(NC(=O)c3cnn(-c4ccccn4)c3C(F)(F)F)cc2F)c1C1CC1", "IC50": "< 0.05 µM"}
{"sample_smiles": "Nc1nccc(Oc2ccc(NC(=O)c3ncn(-c4ccccc4)c3C(F)(F)F)cc2F)c1N", "IC50": "0.05 to 0.5 µM"}
{"sample_smiles": "CC(C)n1c(=O)[nH]c2nccc(Oc3ccc(NC(=O)c4cnn(-c5cccc(C(F)(F)F)n5)c4C(F)(F)F)cc3F)c21", "IC50": "0.05 to 0.5 µM"}
{"sample_smiles": "CCOc1ccn(-c2ccc(F)cc2)c(=O)c1C(=O)Nc1ccc(Oc2ccc(O)c(-c3ccncn3)c2)c(F)c1", "IC50": "0.351 µM"}
{"sample_smiles": "Nc1ncnc(Oc2ccc(NC(=O)c3ncn(-c4ccccc4)c3C(F)(F)F)cc2F)c1Cl", "IC50": "0.05 to 0.5 µM"}
{"sample_smiles": "Cc1nc(-c2ccccc2)sc1C(=O)Nc1ccc(Oc2ccnc(N)c2Cl)c(F)c1", "IC50": "0.5 to 5 µM"}
{"sample_smiles": "N#Cc1c(Oc2c(F)cc(NC(=O)c3cnn(-c4ncccc4Cl)c3C(F)(F)F)cc2F)ccnc1N", "IC50": "< 0.05 µM"}
{"sample_smiles": "Nc1nccc(Oc2ccc(NC(=O)c3cnn(-c4ccncn4)c3C(F)(F)F)cc2F)c1Cl", "IC50": "0.05 to 0.5 µM"}
{"sample_smiles": "CCn1c(=O)[nH]c2nccc(Oc3ccc(NC(=O)c4cnn(-c5ccccc5)c4C(F)(F)F)cc3F)c21", "IC50": "< 0.05 µM"}
{"sample_smiles": "O=C(Nc1ccc(Oc2ccnc3[nH]c(=O)n(C4CCOCC4)c23)c(F)c1)c1ncn(-c2ccccc2)c1C(F)(F)F", "IC50": "< 0.05 µM"}
{"sample_smiles": "O=C(Nc1ccc(Oc2ccnc(NC(=O)C3CC3)c2Cl)c(F)c1)c1ncn(-c2ccccc2)c1C(F)(F)F", "IC50": "0.05 to 0.5 µM"}
